- measured.on: T1, CD137-hisFc fusion protein (Sino Biological Cat 10041-H03H) (human, UniProt Q07011 24-186)
- T1 construct: Bought; also called recombinant human CD137 (fused with human Fc and His tag); not shown: His tag and human Fc
- test.name: BLI Octet, Fab
Reported kon values are given for each entry in this list.
Return type: number; implicit unit M⁻¹ s⁻¹.

Reference set, count: 4
- binder: "Fab 5318 (Fab, V domains shown, Fab from E. coli; also called VH18/VL18) VH: EVQLVESGGGLVQPGGSLRLSCAASGFSLSTSGVAVGWIRQAPGKGLEWLALIDWDDDKYYSTSLKSRLTISRDNSKNTLYLQLNSLRAEDTAVYYCAREGSTAVAGDWFAYWGQGTLVTVSS VL: DIQLTQSPSSLSASVGDRVTITCQASQDIRTFLAWYQQKPGKAPKLLIYDASNRATGIPSRFSGSGSGTDFTLTISSLQPEDFATYYCQQGYSTWTFGQGTKVEIKR"
  value.reported: 141000
- binder: "Fab 3760 (Fab, V domains shown, Fab from E. coli; also called VH1/VL1) VH: EVQLVESGGGLVQPGGSLRLSCAASGFTFTSYGIHWVRQAPGKGLEWVSGISGAGDTTYYADSVKGRFTISRDNSKNTLYLQLNSLRAEDTAVYYCARERDYDFDYWGQGTLVTVSS VL: DIQLTQSPSSLSASVGDRVTITCRASQSVSSYLAWYQQKPGKAPKLLIYDASNLETGVPSRFSGSGSGTDFTLTISSLQPEDFATYYCQQSYSTSHTFGQGTKVEIKR"
  value.reported: 352000
- binder: "Fab 4072 (Fab, V domains shown, Fab from E. coli; also called VH2/VL2) VH: EVQLVESGGGLVQPGGSLRLSCAASGFSLSTSGVAVSWIRQAPGKGLEWIGIINPNFGDTNYAQKFQGRVTISRDNSKNTLYLQLNSLRAEDTAVYYCARDEYYGGSYYFDYWGQGTLVTVSS VL: DIQLTQSPSSLSASVGDRVTITCRASQDVRTAVAWYQQKPGKAPKLLIYDASNLETGVPSRFSGSGSGTDFTLTISSLQPEDFATYYCQQSYDWPPTFGQGTKVEIKR"
  value.reported: 154000
- binder: "Fab 5370 (Fab, V domains shown, Fab from E. coli; also called VH32/VL32) VH: EVQLVESGGGLVQPGGSLRLSCAASGFSLSTSGVAVAWIRQAPGKGLEWLALIDWDDDKRYSTSLKSRLTISRDNSKNTLYLQLNSLRAEDTAVYYCAREGSTTVVGDWFDYWGQGTLVTVSS VL: DIQLTQSPSSLSASVGDRVTITCRASQGIGTYLAWYQQKPGKAPKLLIYDASNRATGIPSRFSGSGSGTDFTLTISSLQPEDFATYYCQQGYSLWTFGQGTKVEIKR"
  value.reported: 524000

Proceeding to the next binder to report its kon.
Need kon of Fab 7128 (Fab, V domains shown, Fab from E. coli; also called VH54/VL54) VH: EVQLVESGGGLVQPGGSLRLSCAASGFSLSTGGVGVAWIRQAPGKGLEWVSYISGDGGTTYYADSVKGRFTISRDNSKNTLYLQLNSLRAEDTAVYYCAREGSDTVLGDWFAYWGQGTLVTVSS VL: DIQLTQSPSSLSASVGDRVTITCRASQGISSYLAWYQQKPGKAPKLLIYDASNLETGVPSRFSGSGSGTDFTLTISSLQPEDFATYYCQQSYSTPLTFGQGTKVEIKR , thanks.
309000

Origin of measurements: patent US20190055314A1
